Assay: RED assay, unbound fraction in in vitro hiPSC-CM MEA assay medium
Settings: in vitro hiPSC-CM MEA assay medium (serum-free)
value-type: fraction unbound at 5 h, 150 µM
Write the value as a bare number.

compound | fraction unbound at 5 h, 150 µM
CCC(=O)C(CC(C)N(C)C)(c1ccccc1)c1ccccc1 (centres unmarked) | 0.79

QUERY: I would be grateful if you could share the reported fraction unbound at 5 h, 150 µM for CC=C1N(C)C(C)CC1(c1ccccc1)c1ccccc1 (centres unmarked) .
RESULT: 0.9

* * *

Assay: In vitro incubations with pooled human liver microsomes
Conditions: human
value-type: Km at 40 min (µM)
Kindly provide the numeric value in µM only, without the unit symbol.

QUERY: I would be grateful if you could share the reported Km at 40 min for CCC(=O)C(CC(C)N(C)C)(c1ccccc1)c1ccccc1 (stereo not shown) [methadone] .
RESULT: 275
